Test system: CAMK2A
pKd: −log10 of the molar value.
measured-property: pKd

Form entry - test system: CAMK2A; read-out: pKd; compound: `Cc1c(Cn2ccn3c(=O)cc(N4CCOCC4)nc23)cccc1C(F)(F)F`
< 5.00

---

Test system: PIK3CA
Conditions: concentration: 1 μM, replicates: in singlicate; n = 1
measured-property: %Inh (%)
Supply the numeric figure in %, leaving out any unit text.

Item `COC(=O)c1c(-c2ccccc2)c2cc(C(=O)O)ccc2c(=O)n1Cc1ccccc1` has what recorded %Inh?
0

Item COc1cccc(NC(=O)NC2CCN(c3ccnc(Nc4ccc(F)cc4)n3)C2)c1 (stereo not shown) [GSK1379721] has what recorded %Inh?
3

Item COc1cc2nccc(Nc3ccc(NC(=O)c4ccc(C)cc4)c(O)c3)c2cc1OC.Cl [GW440132] has what recorded %Inh?
100

Item `Cn1ccc2ncnc(Oc3ccc(Nc4nc5ccccc5[nH]4)cc3)c21` has what recorded %Inh?
0

Item O=C(Nc1ccc2c(c1)OCO2)NC1CCN(c2ccnc(Nc3ccc(F)cc3)n2)C1 (stereo not shown) [GSK1379724] has what recorded %Inh?
0

---

Tested on: PYK2
Construct: gene PTK2B
measured-property: Kd

Item `CC(C)(C)c1ccc(C(=O)Nc2cn3cc(Cl)ccc3n2)cc1` has what recorded Kd?
> 10 µM

---

Parameter %Inh: see the listing below.
System: KIT
Settings: concentration: 1 μM, replicates: in singlicate; n = 1
Supply the numeric figure in %, leaving out any unit text.

// worked examples, %Inh included
Fc1cc(Cl)ccc1Nc1ccnc2cc(I)ccc12 [GW551191] :: 49
Cc1ccccc1-n1cnc2c(N)ncnc21 [SKF-97510] :: 0
Fc1cc(Cl)ccc1Nc1ccnc2cc(-c3ccc(CN4CCCCC4)o3)ccc12 [GW560116] :: 61
COc1ccc(CNC(=O)NC2CCN(c3ccnc(Nc4cc(OC)c(OC)c(OC)c4)n3)C2)cc1 (stereo not drawn) [GSK1379748] :: 57
Cc1nnc(-c2ccc3occ(-c4ccc(S(C)=O)cc4)c3c2)[nH]1 (stereo not drawn) :: 20

Item Nc1nc(-c2nccs2)c(-c2ccnc3ccccc23)s1 [GW693542] has what recorded %Inh?
0

Item `CC(=O)Nc1nc2cnc(Nc3cc(NC(=O)c4cccc(CCC#N)c4)ccc3C)nc2s1` has what recorded %Inh?
99.7

---

Test system: PIK4CB
Construct: gene PI4KB
Settings: concentration: 1 μM, replicates: in singlicate; n = 1
Parameter %Inh: see the listing below.
Supply the numeric figure in %, leaving out any unit text.

// worked examples, %Inh included
CS(=O)(=O)c1ccc(-c2c(-c3ncn[nH]3)sc(N3CCOCC3)c2C#N)cc1 :: 0
Cc1ccc(C(=O)Nc2ccc(Nc3ccnc4cc(-c5ccccn5)ccc34)cc2O)cc1.Cl :: 0
COc1ccc(Nc2nccc(NCCNC(=O)Nc3ccccc3F)n2)cc1 :: 11

Now look at this one.
Item `Clc1cc(Cl)cc(Nc2ccnc(Nc3cc(Cl)cc(Cl)c3)n2)c1` has what recorded %Inh?
0

---

Tested on: RIPK4
measured-property: Kd

Form entry - test system: RIPK4; read-out: Kd; compound: `CS(=O)(=O)c1ccc(-c2nc3n(c2-c2ccncc2)CCC3)cc1`
> 10 µM

---

Test system: MST3
Construct: gene STK24
Conditions: concentration: 1 μM, replicates: in singlicate; n = 1
Parameter %Inh: see the listing below.
I'd appreciate it if you included the unit after the number.

// worked examples, %Inh included
Cl.c1ccc(-c2n[nH]cc2-c2ccnc(-c3ccc(CN4CCOCC4)cc3)c2)nc1 :: 0%
Cc1cccc(-c2nc(-c3ccc(S(C)(=O)=O)cc3)sc2-c2ccnc(NCCc3ccccc3)c2)c1 :: 0%
Cc1c(O)cccc1Nc1ccnc2ccc(C(F)(F)F)cc12.Cl :: 0%
O=C(Nc1ccc2c(c1)OCO2)NC1CCN(c2ccnc(Nc3ccc(F)cc3)n2)C1 (stereo not drawn) :: 0%
COc1ccccc1CNC(=O)c1cc(C(=O)c2ccccc2C)c[nH]1 :: 0%

Now look at this one.
Item `CC(C)(C)c1ccc(C(=O)Nc2cn3cc(Cl)ccc3n2)cc1` has what recorded %Inh?
0%
